B1: Azoarcus group I ribozyme (parent)
chain: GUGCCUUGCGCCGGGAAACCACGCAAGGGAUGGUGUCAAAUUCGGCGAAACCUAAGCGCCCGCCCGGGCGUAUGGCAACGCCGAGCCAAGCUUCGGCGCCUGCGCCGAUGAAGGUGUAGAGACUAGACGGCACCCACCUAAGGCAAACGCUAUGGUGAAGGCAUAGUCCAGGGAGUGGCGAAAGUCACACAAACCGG

- Variants of: B1
- assay_protocol: reverse-splicing fitness (ratio to wild type); higher = more active; in vitro selection; Mg2+ level not given
Tag: T if measured reverse-splicing fitness is not below 0.008, F if it is.

Check out these entries, answers already filled in.
mutation_descriptor	class
A111C A145U C150G C169U U176C	T
A111C A120C A145C C150U C169U U176G	F
C82U A111G A120C C150A U176A	T

Prompt: Check if reverse-splicing fitness >= 0.008 (inclusive). Item: C82A A111C A120U A145G C150G C169G U176C
Completion: F

Prompt: Check if reverse-splicing fitness >= 0.008 (inclusive). Item: C82U A111C A120C C169U U176C
Completion: T

Prompt: Check if reverse-splicing fitness >= 0.008 (inclusive). Item: A111U A120G A145C C150A C169G
Completion: T

Prompt: Check if reverse-splicing fitness >= 0.008 (inclusive). Item: A111U A120C A145U C150G C169U U176A
Completion: T

Prompt: Check if reverse-splicing fitness >= 0.008 (inclusive). Item: A111G A145C C150U C169G U176C
Completion: T

Prompt: Check if reverse-splicing fitness >= 0.008 (inclusive). Item: C82A A111C A120G C150G C169U
Completion: T

Prompt: Check if reverse-splicing fitness >= 0.008 (inclusive). Item: C82A A120C A145G C150G C169G U176C
Completion: T

Prompt: Check if reverse-splicing fitness >= 0.008 (inclusive). Item: A111U A120U A145U C150G U176C
Completion: T

Prompt: Check if reverse-splicing fitness >= 0.008 (inclusive). Item: C82A A111G A120U A145U C150A C169G U176G
Completion: F

Prompt: Check if reverse-splicing fitness >= 0.008 (inclusive). Item: C82U A111U A145C C150G U176A
Completion: T
